The measurements presented in this section are drawn from patent US7192607B2.

- Test system: HSV-1 (strain F)
- PROCEDURE_DETAILS: Infectivity of HSV-1 (strain F) to Vero cells after treatment with SLS or DS (plaque forming units)
- Type: cell-based, Herpes simplex virus type-1
- CONDITION: Human alphaherpesvirus 1, Vero, virus pretreated for 1 h at 37° C., FIG. 1, read-out: concentration giving a loss of 50% of the viral infectivity
OBSERVED_PROPERTY: IC50 (µM)
Numbers only, in µM.

[in] Sample CCCCCCCCCCCCOS(=O)(=O)[O-].[Na+] [SLS, Sodium lauryl sulfate] — what was its IC50?
[out] 20
